Assay: Human HepG2 cell viability assay in 384 well format
Assay type: toxicity, cell-based
Design: dose 125 nL, time 70.5 hour; concentration not given beside the values
Details: HepG2 cells, read-out: Inhibition
Here the recorded cytotoxicity at 70.5 h is given for each entry.
Write the value in % as a bare number.

For this molecule ( O=C(Nc1cccs1)N(CCO)CCOCC(F)(F)F ), measured cytotoxicity at 70.5 h is 6.76

The measured cytotoxicity at 70.5 h associated with CN(Cc1nccn1CC(F)(F)F)C(=O)c1cccc(C#N)c1 reads -7.89

###

Test: Human HepG2 cell viability assay in 384 well format
Type: toxicity, cell-based
Parameters: dose 125 nL, time 70.5 hour; concentration not given beside the values
Conditions: HepG2 cells, read-out: Inhibition
measurement-label: cytotoxicity at 70.5 h (%)
Use % as the unit, but write only the number.

[[record]]
compound = "Cc1ncc(CN2CCN(c3ccc4nncn4n3)C(C)C2)s1 (stereo not drawn)"
measurement_label = "cytotoxicity at 70.5 h"
unit_text = "%"
value = -11.1

[[record]]
compound = "O=C(c1ccc(=O)[nH]n1)N1CCc2ccccc21"
measurement_label = "cytotoxicity at 70.5 h"
unit_text = "%"
value = -0.117

[[record]]
compound = "Cc1cc(C)n(C2CN(C(=O)Cn3c(=O)c(C)nc4ccccc43)C2)n1"
measurement_label = "cytotoxicity at 70.5 h"
unit_text = "%"
value = 30

[[record]]
compound = "Cc1cccc(-c2noc(CN3CCC(c4ccn[nH]4)CC3)n2)c1"
measurement_label = "cytotoxicity at 70.5 h"
unit_text = "%"
value = -1.2

[[record]]
compound = "CCN1CCC(N2C[C@H]3OC(=O)N(CCc4cccc(Cl)c4)[C@H]3C2)CC1"
measurement_label = "cytotoxicity at 70.5 h"
unit_text = "%"
value = -0.155

[[record]]
compound = "Cc1cc(NC(=O)C(C)Cn2cc(Br)cn2)no1 (stereo not drawn)"
measurement_label = "cytotoxicity at 70.5 h"
unit_text = "%"
value = 1.29

[[record]]
compound = "CN(c1ncccc1CNC(=O)c1cscn1)C1CCCCC1"
measurement_label = "cytotoxicity at 70.5 h"
unit_text = "%"
value = 0.847

[[record]]
compound = "COCCN1C[C@@H]2CCCO[C@@H]2[C@H](N(C)Cc2ccco2)C1"
measurement_label = "cytotoxicity at 70.5 h"
unit_text = "%"
value = -2.22


CCC1=N[C@@]2(CC[C@@H]3CN(C(=O)NC(C)C)C[C@@H]32)C(=O)N1C has a reported cytotoxicity at 70.5 h of -1.59

# cytotoxicity at 70.5 h of COc1cccc(-c2cccc(CN3C[C@@H]4CC[C@H](C3)N(C)C4=O)c2)c1 = 14.8

The reported value for CCOC(=O)[C@]12CCCN(Cc3ccco3)C[C@H]1CN(S(C)(=O)=O)C2 in terms of cytotoxicity at 70.5 h is -4.24

Per the record, O=C(CN1CCc2[nH]c3ccccc3c2C1)NCc1ccco1 has cytotoxicity at 70.5 h of -10.8

cytotoxicity at 70.5 h reported for this compound Cc1noc(C)c1CN1C[C@@H]2CC[C@H](C1)N(Cc1cc(F)cc(F)c1)C2 : -14.1

For reference, reported cytotoxicity at 70.5 h for O=C(N[C@@H]1CCN(Cc2cccc3nonc23)C[C@H]1O)c1cccnc1 stands at -13.7

// recorded cytotoxicity at 70.5 h for CC(C)CN(C)S(=O)(=O)c1ccc(Cl)cc1C#N : 34.3

// field: cytotoxicity at 70.5 h; key: O=C(c1cnc(C2CC2)s1)N1CCCC1Cn1cccn1 (stereo not drawn) ; value = -4.89

Consider Cc1ccc(C(=O)N2CCN(c3ncnc4nc(N)ccc34)CC2)o1 . Its measured cytotoxicity at 70.5 h is -7.65

Lab note: measured cytotoxicity at 70.5 h of CC(NC(=O)NCc1cccc(CN2CCCC2)c1)c1nccs1 (stereo not drawn) was -5.42

Lab note: COc1ccccc1CNC(C)c1ccc(-n2ccnc2)cc1 (stereo not drawn) gave cytotoxicity at 70.5 h of 32.7

Documented cytotoxicity at 70.5 h of CCc1ncc(CN2CCC(CCc3ccccc3)CC2)cn1 : 20.8

cytotoxicity at 70.5 h in this record for CCN1CCC(CNC(=O)Nc2cccnc2OC)CC1 : -6.19

Input c1cncc(OCc2noc3c2CN(Cc2ccco2)CC3)c1 . Output cytotoxicity at 70.5 h: -17.4

Memo: Cc1ccc(-c2nc(CC(=O)NCC3CCCN(C(C)C)C3)cs2)o1 (stereo not drawn) , reported cytotoxicity at 70.5 h: 11.1

###

Assay: Human HepG2 cell viability assay in 384 well format
Assay type: toxicity, cell-based
Design: dose 125 nL, time 70.5 hour; concentration not given beside the values
Settings: HepG2 cells, read-out: Inhibition
The following compounds are listed with their measured cytotoxicity at 70.5 h values.
I only need the number, in %, no unit after it.

Record N#Cc1ccccc1N1CCCN(CC(=O)Nc2ccccc2Cl)CC1 , field cytotoxicity at 70.5 h: -6.48

Query Cc1nc(O)c2nnn(C[C@H]3CCCN3C(=O)C3CCCC3)c2n1 yields cytotoxicity at 70.5 h of -4.22

###

Test: Human HepG2 cell viability assay in 384 well format
Format: toxicity, cell-based
Design: dose 125 nL, time 70.5 hour; concentration not given beside the values
Conditions: HepG2 cells, read-out: Inhibition
measurement-label: cytotoxicity at 70.5 h (%)
Report the value in % with no unit label.

Worked examples follow.
[[record]]
compound = "CCn1ncc(CN(C)C(=O)c2cc(C(F)(F)F)n(C)n2)c1C"
value = -17.2

[[record]]
compound = "CN(C)c1ccc(C(=O)N2CCCC2c2ccc(Cl)cc2)cc1 (centres undefined)"
value = -4.22

[[record]]
compound = "CC(C)Cn1cc(NC(=O)c2cccc(N(C)C)c2)cn1"
value = -8.55

[[record]]
compound = "Cc1ccoc1CNCc1nnc2n1CC(C(F)(F)F)CC2 (centres undefined)"
value = -12.1

[[record]]
compound = "O=C(NCCN1CCOCC1)c1nc2ccccc2c(=O)[nH]1"
value = -23.1


CN1CCN(c2nc(O)c3c(-c4ccccn4)ccnc3n2)CC1 yielded cytotoxicity at 70.5 h of -3.01

Reported cytotoxicity at 70.5 h of CCCc1n[nH]c(C2CN(C(=O)c3n[nH]c4ccccc34)CCO2)n1 (centres undefined) : -6.7

Looking up Cc1cc(CN2CCc3nn(C(C)C)c(=O)cc3C2)no1 , I see its cytotoxicity at 70.5 h listed as 5.97

cytotoxicity at 70.5 h in this record for CN(C)c1ccc(CCNC(=O)NCc2ccc(N(C)C)nc2)cc1 : -3.36

###

Experiment: Human HepG2 cell viability assay in 384 well format
Format: toxicity, cell-based
Design: dose 125 nL, time 70.5 hour; concentration not given beside the values
Settings: HepG2 cells, read-out: Inhibition
measurement-label: cytotoxicity at 70.5 h

Recorded cytotoxicity at 70.5 h, per entry:
[[record]]
molecule = "COCc1cc(CC2(NC3CCN(C)CC3)COC2)no1"
value = "6.14%"

[[record]]
molecule = "Cc1cccc(CNCc2c(C)nn(C)c2N2CCOCC2)n1"
value = "-2.64%"

[[record]]
molecule = "CCN(Cc1ccncc1)c1cc(C2CCN2C(C)=O)nc(C)n1 (stereo unspecified)"
value = "-1.55%"


// cytotoxicity at 70.5 h lookup, molecule = C=C(C)COc1cccc(CN(C)C(C)c2nccs2)c1 (stereo unspecified) , result: -4%

Measured cytotoxicity at 70.5 h, Cc1cc(F)ccc1N1CCCC(NS(=O)(=O)CCCF)C1=O (stereo unspecified) : -6.3%

Consider Cc1cc(=O)n(CC(=O)NCCC(C)C)c(-c2cccc(Cl)c2)n1 . Its measured cytotoxicity at 70.5 h is -1.79%

###

Assay: Human HepG2 cell viability assay in 384 well format
Format: toxicity, cell-based
Set-up: dose 125 nL, time 70.5 hour; concentration not given beside the values
Conditions: HepG2 cells, read-out: Inhibition
measurement-label: cytotoxicity at 70.5 h (%)
State the answer as a number, implicitly in %.

Solved cases below.
[[record]]
compound = "Cc1nnc2n1CCN(C(=O)c1cn(-c3ccc(F)cc3)nn1)C2"
measurement_label = "cytotoxicity at 70.5 h"
value = -0.105

[[record]]
compound = "Cc1cccc(CN2CC3C[C@]3(NC(=O)c3cccc(F)c3)C2)n1 (stereo not given in full)"
measurement_label = "cytotoxicity at 70.5 h"
value = -12.2

[[record]]
compound = "O=C1CC(c2ccc3ccccc3n2)c2c(n[nH]c2C2CCC2)N1 (stereo not given)"
measurement_label = "cytotoxicity at 70.5 h"
value = 19.5


Now for a further compound.
// sample CCc1nnsc1C(=O)NCCCC(CC)(CC)C1OCCO1 , its cytotoxicity at 70.5 h was -15.8

###

Test: Human HepG2 cell viability assay in 384 well format
Format: toxicity, cell-based
Design: dose 125 nL, time 70.5 hour; concentration not given beside the values
Conditions: HepG2 cells, read-out: Inhibition
# key: entry, value: cytotoxicity at 70.5 h
Give just the number in %; leave the unit off.

Solved entries:
[[record]]
compound_string = "CCn1cnnc1CNC(=O)N1CCCCCC1"
measurement_label = "cytotoxicity at 70.5 h"
unit_text = "%"
value = -2.16

[[record]]
compound_string = "CCc1cnc2c(c1Nc1ccc3c(c1)OCO3)c(=O)n(C)c(=O)n2C"
measurement_label = "cytotoxicity at 70.5 h"
unit_text = "%"
value = -1.57

[[record]]
compound_string = "Cc1ccc(C(=O)N2CCC3(CC2)CCN(Cc2ccccn2)C3=O)o1"
measurement_label = "cytotoxicity at 70.5 h"
unit_text = "%"
value = 26.4


Let's switch to this molecule now.
Kindly note the recorded cytotoxicity at 70.5 h for Cc1nc(CNC(=O)CCN2CCN(c3ccccn3)CC2)oc1C , which is 6.4
